Measured Ka of individual entries
- experimental-system: T1, biotinylated native human ApoC3 (human, UniProt P02656 21-99, biotinylated (site not stated))
- T1 construct: also called biotinylated human ApoC3
- T1 sequence (P02656 21-99): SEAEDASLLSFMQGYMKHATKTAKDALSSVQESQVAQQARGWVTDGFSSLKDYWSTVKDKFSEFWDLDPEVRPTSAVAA
- assay-procedure: SPR, IgG1 over biotinylated ApoC3 on SA chip, pH 7.4
// note: answer is a bare numeric in M⁻¹

// below: answered binders
mAb13 (antibody, IgG1, V domains shown, Produced as full length IgG1 (kappa) in ExpiCHO-S cells; CDR graft into the closest human germline frameworks; also called humanized anti-ApoC3 antibody mAb13; variant 13) VH: QLLESGGGLVQPGGSLRLSCAASGFTFSTYSMRWVRQVPGKGLEWVSSIHTEGGGTAYRDSVKGRFTISRDNSKNTLYLQMNSLRAEDTAVYYCVIAGYSDWGQGTLVTVSS VL: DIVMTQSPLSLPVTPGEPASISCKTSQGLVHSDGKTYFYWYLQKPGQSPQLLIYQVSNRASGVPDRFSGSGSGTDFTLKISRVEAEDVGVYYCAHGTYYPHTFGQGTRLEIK | 2.38e+08
mAb17 (antibody, IgG1, V domains shown, Produced as full length IgG1 (kappa) in ExpiCHO-S cells; also called humanized anti-ApoC3 antibody mAb17) VH: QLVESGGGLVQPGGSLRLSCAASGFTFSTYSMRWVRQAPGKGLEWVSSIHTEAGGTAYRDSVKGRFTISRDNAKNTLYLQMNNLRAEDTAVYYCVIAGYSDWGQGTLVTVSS VL: DIVMTQSPLSLPVTPGEPASISCKTSQGLVHSGGKTYFYWFLQKPGQSPQQLIYQVSNRASGVPDRFTGSGSGTDFTLKISRVEAEDAGVYYCAQGTYYPHTFGQGTRLEIK | 2.15e+10

Kindly review the next binder as well.
For reference, reported Ka for mAb15 (antibody, IgG1, V domains shown, Produced as full length IgG1 (kappa) in ExpiCHO-S cells; also called humanized anti-ApoC3 antibody mAb15) VH: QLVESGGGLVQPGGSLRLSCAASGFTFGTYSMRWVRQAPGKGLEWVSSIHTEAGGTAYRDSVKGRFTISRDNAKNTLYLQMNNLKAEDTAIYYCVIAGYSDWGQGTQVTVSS VL: DIVMTQSPLSLPVTPGESASISCKTSQGLVHSGGKTYFYWFLQKPGQSPQQLIYQVSNRASGVPDRFTGSGSGTDFTLKISRVEAEDAGVYYCAQGTYYPHTFGSGTRLEIK stands at 1.86e+11
